Data origin: PubChem BioAssay (NCI)

Documented TGI across a set of compounds
test system: COLO 205 colon; assay: NCI tumour cell line growth inhibition, 48 h
measured.endpoint: TGI

[[record]]
compound = "CC(=O)c1cccc(NC(=O)c2ccc(NC3=C(Cl)C(=O)N(Cc4ccccc4)C3=O)cc2)c1"
reading = "> 100 µM"

[[record]]
compound = "Cc1nc2ccccc2c(=O)n1/N=C/c1ccc(N(C)C)cc1"
reading = "> 100 µM"

[[record]]
compound = "C#C/C=C/CC1OC(C(Br)CC)CC(Br)C2CC1O2 (stereo not drawn)"
reading = "> 100 µM"

[[record]]
compound = "CC(=O)OCCOCCN1CCN(c2c(O)c3c(c(O)c2Cl)C(=O)C=CC3=O)CC1"
reading = "0.68 µM"

[[record]]
compound = "Brc1ccc(-c2cc(-c3ccc4c(c3)OCO4)c(-c3cccs3)n2Cc2ccccc2)cc1"
reading = "> 100 µM"

[[record]]
compound = "COc1ccc(/C=C2\\CN(C)CC3C2=NN(c2ccccc2)C3c2ccc(OC)cc2)cc1 (stereo not drawn)"
reading = "> 100 µM"

[[record]]
compound = "CC(=O)c1ccc2c(c1)N(CCCN(C)C)c1ccccc1S2"
reading = "11.7 µM"

[[record]]
compound = "CC1(C)N=C(N)N=C(N)N1c1ccc(Cl)c(Cl)c1"
reading = "> 100 µM"

[[record]]
compound = "O=C(CCc1ccc(O)cc1)NCCCNC(=O)CCc1ccc(O)cc1"
reading = "> 100 µM"

[[record]]
compound = "NC(=O)SCC(=O)Nc1ccc2ncccc2c1"
reading = "> 100 µM"

[[record]]
compound = "COc1cc2ccc(CC(N)=O)cc2cc1OC"
reading = "> 100 µM"

[[record]]
compound = "O=[p+]1c2ccccc2[nH]c2ccccc21"
reading = "> 100 µM"

[[record]]
compound = "COCn1c(C)c(C)c2c(=O)oc(C)nc21"
reading = "> 100 µM"

